Can you tell me melting point for the items I'm about to list?

## Input What value of measured melting point is listed for Oc1cc(C(F)(F)F)nc2ccc(Cl)cc12 ?
## Output 280 to 289 °C

## Input What value of measured melting point is listed for CCOC(=O)c1c(C)nc2sc3c(c2c1N)CCCC3 ?
## Output 135 to 136 °C

## Input What value of measured melting point is listed for Nc1cc(C(F)(F)F)ccc1N1CCCC1 ?
## Output 33 to 35 °C

## Input What value of measured melting point is listed for COC(=O)C1Cc2ccccc2N1C(=O)OC(C)(C)C (stereo not given) ?
## Output 73 to 75 °C

## Input What value of measured melting point is listed for O=C=Nc1ccc(-c2cccs2)cc1 ?
## Output 65 to 66 °C
